assay: protein stability index of a GFP-peptide fusion (yeast GPS) (PSI 1-4); higher = more stable; sorted into four equal gates, so the index is relative within each strain; conditions: ubr1∆
Measurement Label: protein stability index
Lab note: record just the number, no unit beside it.

Exam item: State its protein stability index for this sequence: ANETDKRPTPPSFTFGG [YOR098C/NUP1]
Marked response: 3.1

Exam item: Return protein stability index for the following sequence: RGIPRLSEDELRELDVE [SMC4]
Marked response: 3.57

Exam item: Identify measured protein stability index associated with LKKLEKFMELERKTLER [SWI3]
Marked response: 2.66

Exam item: Give recorded protein stability index. LNSMEKDRISHEVVQDD [PCI8]
Marked response: 2.41

Exam item: Report protein stability index for IDWASPEYGRIIASASY [YGL100W/SEH1]
Marked response: 2.71

Exam item: Answer with the recorded protein stability index of VKWYHFDHNDKKLSINS [PRE7] only.
Marked response: 2.48

Exam item: Supply protein stability index value. Item: QFQRLAPSLTVPPIASP [PRE2]
Marked response: 2.15

Exam item: Give reported protein stability index value for SQFCYVSDDESNGEVLE [RPN14]
Marked response: 3.09

Exam item: Identify the reported protein stability index for the following entry. LFAGYTDNVIRVWQVMT [ASC1]
Marked response: 2.06

Exam item: Given the sequence HTSIRETLENGETRMKM [SMC2] , write its reported protein stability index.
Marked response: 2.95

Exam item: Given NKLGNDPSLNLKLLAKS [BRR2] , respond with its protein stability index.
Marked response: 2.55

Exam item: Indicate the recorded protein stability index value for this sequence: VEDGNILVFQVSMKANK [RPL25]
Marked response: 2.69

Exam item: Tell me measured protein stability index for DFELEISWCSLSETNGL [PRE10] please.
Marked response: 2.84

Exam item: Find the measured protein stability index of IYDDWLDRISSYTAFSR [PRP8] and report it.
Marked response: 2.24

Exam item: Answer with reported protein stability index of LENSSRSPRVVTNALDN [NUT1]
Marked response: 2.74

Exam item: For the sequence KIQETELKIRSKTENVR [RPT6] , give its reported protein stability index.
Marked response: 2.57

Exam item: Retrieve protein stability index measured for INAKNIAFASNYGIVEL [RRP43] and print it.
Marked response: 1.84

Exam item: Give protein stability index for LTSPAFGPHVDVNDVLT [GRR1]
Marked response: 3.27

Exam item: Report protein stability index, nothing else, for this sequence: KKRREYFPEGYNNKVGV [SIR2]
Marked response: 2.69

Exam item: Please give the documented protein stability index of VFTMKELAQYMKTNVHT [RGR1]
Marked response: 2.69

Exam item: Respond only with protein stability index recorded for VIRIPMQENDKINQERL [CSI1]
Marked response: 2.82

Exam item: Please supply the value of reported protein stability index for the item NGNDESSEYETINISLS [NUT1]
Marked response: 3.58

Exam item: Please list protein stability index recorded for the sequence TADAEILINTARIHAQN [PRE9]
Marked response: 2.96

Exam item: Tell us which protein stability index value is on record for RAGVSQVLNRYTYSSTL [RPB2]
Marked response: 2.76

Exam item: Fill in protein stability index for record DSVENSSNILEDILYYS [SRB8]
Marked response: 2.72

Exam item: Please list protein stability index recorded for the sequence KMLKIWTMAFRTMDDIK [ECM29]
Marked response: 1.96

Exam item: In one line, give reported protein stability index of the entry DNVQANDPAREKFSSFI [SNF12] .
Marked response: 3.11

Exam item: Indicate its recorded protein stability index; the sequence in question is FYLYMLVQKFGGADQVT [SWI1]
Marked response: 1.75

Exam item: State its protein stability index: RAIDSLIQKGYLQRGDD [CDC53]
Marked response: 2.06

Exam item: Tell us which protein stability index value is on record for LLRALKTNEESAKMILL [PRP8]
Marked response: 2.92

Exam item: Consider the sequence DTKDALSTRELAGKVGS [RPC53] and give its recorded protein stability index.
Marked response: 3.08

Exam item: Provide measured protein stability index value, entry: IDDVQTIKVVKRSMDAE [RPP1]
Marked response: 3

Exam item: Return value of protein stability index for input MSTFIFPGDSFPVDPTT [RRP40] , no commentary.
Marked response: 2.35

Exam item: Give a short answer stating reported protein stability index for NRANVSKDELREKLAEV [RPS24A] .
Marked response: 3.28

###

assay: protein stability index of a GFP-peptide fusion (yeast GPS) (PSI 1-4); higher = more stable; sorted into four equal gates, so the index is relative within each strain; details: doa10∆
For each record, write down the corresponding protein stability index.
Give the figure by itself; no unit, no explanation.

Exam item: Query protein stability index for ELVFSKGVYLILSEILC [YML103C/NUP188]
Marked response: 1.93

Exam item: Give me measured protein stability index, please, for this sequence: PNSNKTHTEQNNPPKPQ [SNF2]
Marked response: 2.78

Exam item: Return value of protein stability index for input HNSHLSLNYKFTTNKSK [SRP21] , no commentary.
Marked response: 2.46

Exam item: Report protein stability index for NNMNVNMNLNPQMFLNQ [GAL11]
Marked response: 2.14

Exam item: Report protein stability index, nothing else, for this sequence: SLQDRSSLVRRNSVKLL [YCS4]
Marked response: 2.02

Exam item: Please give measured protein stability index of the following entry: NAAGNTPDATKIKAILE [RPP2A]
Marked response: 3.13

Exam item: In one line, give reported protein stability index of the entry GFKTPKTAIEGSYIDKK [RPS11A] .
Marked response: 2.98

Exam item: State its protein stability index: MYTLSAQDEVFSLAFSP [ASC1]
Marked response: 2.24

Exam item: For IVDPTAEQLKISLSVHT [RRP46] , write its protein stability index.
Marked response: 1.64

Exam item: Read off the recorded protein stability index for KSMELFYDIRSLLERHI [YJL039C/NUP192]
Marked response: 2.84

Exam item: Supply reported protein stability index belonging to this sequence: DPFKTSSFNKRSKFLST [IRR1]
Marked response: 2.15

Exam item: Consider the sequence HAKRKTVTSLDVVYALK [HHF1] . State its measured protein stability index.
Marked response: 3.54

Exam item: Indicate the recorded protein stability index value for this sequence: IEQSITKNIPITHRDLH [SSN8]
Marked response: 2.37

Exam item: Report protein stability index, nothing else, for this sequence: KKRSKARKETYSSYIYK [HTB1]
Marked response: 2.84

Exam item: Indicate its recorded protein stability index; the sequence in question is ELNYFVGCKNLERLTLV [GRR1]
Marked response: 2.92

Exam item: Supply protein stability index value. Item: KGLETIDNGAESSENEA [RPC53]
Marked response: 3.24

Exam item: Please report the measured protein stability index for YHLLNYDPIKRIDAFNA [SSN3]
Marked response: 2.33

Exam item: Output protein stability index of IRSSSVSLVAEATSNTN [MED4]
Marked response: 1.89

Exam item: Supply measured protein stability index of SPNFKNYLKYLEYWCNP [SOH1] in your reply.
Marked response: 2.32

Exam item: Note protein stability index for the sequence shown: IYNKMIGVLNNSSESDE [RPN13]
Marked response: 2.74

Exam item: Supply protein stability index value. Item: LGKQSSSLLSRLISSKM [FAS2]
Marked response: 2.98

Exam item: Quote protein stability index reported for QEHTIFTQLKKNIPKTR [SNU114] please.
Marked response: 1.8

Exam item: Provide protein stability index value for the following sequence: ELTKSLSIAFENGDYAA [RPN12]
Marked response: 3.17

Exam item: Fill in protein stability index for record ETFSTSAHQSPIMQTQM [SNF2]
Marked response: 3.17

Exam item: Look up protein stability index of SREAVRHFGMGPHKGKA [RPL18A] and report it.
Marked response: 3.22

Exam item: Fill in reported protein stability index for this entry: PPTTSNLIIFLYKFNGW [YML103C/NUP188]
Marked response: 1.76

Exam item: Given EGAARGTSVYLVDKRID [DIS3] , respond with its protein stability index.
Marked response: 3.38

Exam item: Give a short answer stating reported protein stability index for RGNKVNKQIEILTDLVN [ITC1] .
Marked response: 2.83

Exam item: // fetch protein stability index given entry RPNRRGPRNTEEKGWVP [RPS2]
Marked response: 3.42

Exam item: // Input: AEEIGVEHLLRDVRDQA [RPN8] . Output its protein stability index only.
Marked response: 3.2

Exam item: Could you please provide reported protein stability index for KTPVFTTGGDYILSLVS [YMR129W/POM152] ? Thanks!
Marked response: 2.06

Exam item: Hello, please tell me recorded protein stability index for this one: PRDVIKGKDFEITAKEV [FAS1]
Marked response: 3.27

Exam item: For the sequence RQKARTDAHTPLARNYI [RPR2] , give its reported protein stability index.
Marked response: 2.63

Exam item: Return protein stability index for the following sequence: CIKKIMENNEPAMAMED [SRB8]
Marked response: 3.12

Exam item: Assign protein stability index to the following record: TPATIVKKPTFTFGQST [YOR098C/NUP1]
Marked response: 2.84

Exam item: Could you please provide reported protein stability index for RGMLGLLEPPAKELQGI [RPO31] ? Thanks!
Marked response: 2.08

Exam item: Supply recorded protein stability index for IAAKTHILRISFLDRKR [SIN4] here.
Marked response: 2.53

Exam item: Return protein stability index for the following sequence: DPFSDVDDDQDYVVAPG [GRR1]
Marked response: 2.56
